- Test system: WSU-DLCL2 (B-Cell Non-Hodgkin's Lymphoma)
- assay.info: combination Emax (second highest fraction inhibited in the dose matrix, 72 h); higher = more inhibition; extreme values may be limits of the assay
measurement.kind: combination Emax

Cc1cc2ncnn2cc1Nc1ncc2c(n1)n(C1CCOCC1)c(=O)n2C [AZD7648] + C[C@@H]1COCCN1C2=NC(=NC(=C2)C3(CC3)[S@](=N)(=O)C)C4=C5C=CNC5=NC=C4 [AZD6738] (first compound max 10 µM, 7x7, partner max 10 µM)    0.905
CC1(C)CCC(CN2CCN(c3ccc(C(=O)NS(=O)(=O)c4ccc(NCC5CCOCC5)c([N+](=O)[O-])c4)c(Oc4cnc5[nH]ccc5c4)c3)CC2)=C(c2ccc(Cl)cc2)C1 [Venetoclax] + Cc1cc2ncnn2cc1Nc1ncc2c(n1)n(C1CCOCC1)c(=O)n2C [AZD7648] (first compound max 1 µM, 7x7, partner max 10 µM)    0.442
Cc1c2c(nn1C)CSCc1cc(n(C)n1)CSc1cc(c3ccccc3c1)OCCCc1c(C(=O)O)n(C)c3c-2c(Cl)ccc13 [AZD5991] + CN(C)CCCOc1ccc(-c2ccc3ncc4c(c3c2)n(C2CCOCC2)c(=O)n4C)cn1 [AZD0156] (first compound max 1 µM, 7x7, partner max 1 µM)    1
COc1nnc2ccc(N3CCC(c4ccc(OCCN5CCN(C)C(=O)[C@H]5C)cc4)CC3)nn12 [AZD5153] + C=CCn1c(=O)c2cnc(Nc3ccc(N4CCN(C)CC4)cc3)nc2n1-c1cccc(C(C)(C)O)n1 [AZD1775] (first compound max 1 µM, partner max 1 µM)    0.996
NC1(C(=O)N[C@@H](CCO)c2ccc(Cl)cc2)CCN(c2ncnc3[nH]ccc23)CC1 [Capivasertib] + CC(=O)c1c(C)c2cnc(Nc3ccc(N4CCNCC4)cn3)nc2n(C2CCCC2)c1=O [Palbociclib] (first compound max 10 µM, 7x7, partner max 10 µM)    1
Cc1c2c(nn1C)CSCc1cc(n(C)n1)CSc1cc(c3ccccc3c1)OCCCc1c(C(=O)O)n(C)c3c-2c(Cl)ccc13 [AZD5991] + C[C@@H]1COCCN1C2=NC(=NC(=C2)C3(CC3)[S@](=N)(=O)C)C4=C5C=CNC5=NC=C4 [AZD6738] (first compound max 1 µM, 7x7, partner max 10 µM)    1
NC1(C(=O)N[C@@H](CCO)c2ccc(Cl)cc2)CCN(c2ncnc3[nH]ccc23)CC1 [Capivasertib] + Cn1cnc2c(F)c(Nc3ccc(Br)cc3Cl)c(C(=O)NOCCO)cc21 [Selumetinib] (first compound max 10 µM, 7x7, partner max 10 µM)    1

Recorded values, source the supplement of paper PMC11061612.
